B1: library; numbered along this chain (parent)
chain: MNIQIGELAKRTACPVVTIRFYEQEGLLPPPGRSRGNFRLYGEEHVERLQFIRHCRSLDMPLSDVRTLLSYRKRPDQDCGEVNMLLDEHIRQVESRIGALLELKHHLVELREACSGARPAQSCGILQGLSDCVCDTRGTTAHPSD

Variants of: B1
Assay: sfGFP reporter fluorescence (15 h) (µM FITC); higher = stronger transcriptional activation
Details: library round: Round 0; ligand: 30 µM Zn
I would appreciate it if you labelled entries yes (1) when sfGFP reporter fluorescence is 0.07 or higher, otherwise no (0).

QUERY: Check this variant for sfGFP reporter fluorescence at or above 0.07: S95A
RESULT: yes (1)

QUERY: Check this variant for sfGFP reporter fluorescence at or above 0.07: C134Y
RESULT: yes (1)

QUERY: Check this variant for sfGFP reporter fluorescence at or above 0.07: S144A
RESULT: yes (1)

QUERY: Check this variant for sfGFP reporter fluorescence at or above 0.07: R20H
RESULT: yes (1)

QUERY: Check this variant for sfGFP reporter fluorescence at or above 0.07: K104M
RESULT: yes (1)

QUERY: Check this variant for sfGFP reporter fluorescence at or above 0.07: L27G
RESULT: no (0)

QUERY: Check this variant for sfGFP reporter fluorescence at or above 0.07: L107K
RESULT: yes (1)

QUERY: Check this variant for sfGFP reporter fluorescence at or above 0.07: F21G
RESULT: no (0)

QUERY: Check this variant for sfGFP reporter fluorescence at or above 0.07: P143G
RESULT: yes (1)

QUERY: Check this variant for sfGFP reporter fluorescence at or above 0.07: F21A
RESULT: no (0)

QUERY: Check this variant for sfGFP reporter fluorescence at or above 0.07: L27W
RESULT: no (0)

QUERY: Check this variant for sfGFP reporter fluorescence at or above 0.07: E7A
RESULT: yes (1)

QUERY: Check this variant for sfGFP reporter fluorescence at or above 0.07: M60L P61N G128M
RESULT: yes (1)

QUERY: Check this variant for sfGFP reporter fluorescence at or above 0.07: M60F
RESULT: yes (1)

QUERY: Check this variant for sfGFP reporter fluorescence at or above 0.07: L28G
RESULT: no (0)

QUERY: Check this variant for sfGFP reporter fluorescence at or above 0.07: L68V
RESULT: yes (1)

QUERY: Check this variant for sfGFP reporter fluorescence at or above 0.07: C132A
RESULT: yes (1)

QUERY: Check this variant for sfGFP reporter fluorescence at or above 0.07: V82M
RESULT: no (0)

QUERY: Check this variant for sfGFP reporter fluorescence at or above 0.07: V16G
RESULT: yes (1)

QUERY: Check this variant for sfGFP reporter fluorescence at or above 0.07: L126Y
RESULT: no (0)
